Each entry below carries its reported Kd.
Target: recombinant human CD38 (human, UniProt P28907 43-300, limits assumed)
Experiment: SPR (Biacore 8K), antibody captured, antigen injected;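 note: antibodies held on a CM5 chip through anti-human IgG Fc, antigen in 3-fold serial dilutions, 1 min association then 10 min dissociation at 25 °C, 1:1 Langmuir global fit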
The figure you give is taken to be in nM; do not add the unit.

Previously resolved entries follow.
27F6 (antibody, human IgG1, kappa, V domains shown, Rabbit-human chimeric anti-CD38: rabbit VH and VL on human IgG1 and kappa constant regions) VH: QSLEESGGGLVKPGASLTLTCKASGFSFSSGCDMCWVRQAPGKGLEWISCIYTGSGSTYYANWAKGRFTISRTSSTTVTLQMTSLTAADTATYFCAGDSDYLGLWGPGTLVTVSS VL: DIVMTQTPSSVEAAVGGTVTIKCQASQNIGNYLAWYQQKPGQPPKVLIYRASTLASGVPSRFKGSGSGTHFTLTISDLESADAATYYCQSYYYTTDDNYRSWAFGGGTEVVVKR ... 0.31
26D4 (antibody, human IgG1, kappa, V domains shown, Rabbit-human chimeric anti-CD38: rabbit VH and VL on human IgG1 and kappa constant regions) VH: QEQLEESGGDLVKPEGSLTLTCTASGFSFSNDAICWVRQAPGKGLEWIACIYAGSGNTYYASWAKGRFSISKTSSTTVTLQMTSLTVADTATYFCASADTIDYFNLWGPGTLVTVSS VL: AQVLTQTPSPVSAAVGGTVTINCQASQSVYNNNYLAWYQQKPGQPPKLLIYRASNLASGVPSRFSASGSGTQFTLTISEVQSDDAATYYCQAYYRDPTTAFGGGTEVVVKR ... 510

Please find the next binder below.
Request: Report Kd, nothing else, for this binder: 20B5 (antibody, human IgG1, kappa, V domains shown, Rabbit-human chimeric anti-CD38: rabbit VH and VL on human IgG1 and kappa constant regions) VH: QSLEESGGDLVKPGASLTLTCTASGFSFSSRYWICWVRQAPGKGLEWIACIVAGTTNTYYASWAKGRFTISKTSSTTVTLQMTSLTAADTATYFCAGDPRTGSNVGYFNLWGPGTLVTVSS VL: AQVLTQTPSPVSAAVGGTVTINCQASQSVYNNNYLAWFQQKPGQPPKLLIYSASTLASGVPSRFKGSGSGTQFTLTISEVQSDDAATYYCQAYYSGGIYAFGGGTEVVVKR
Result: 98.5
